- TARGET_DESC: KRas G12C (Homo sapiens, UniProt P01116, G12C)
- Construct: Biotinylated KRas (corresponding to amino acids 1-169, produced at Accelegan Inc.); biotin (biotinylated); purchased Accelegan Inc
- Sequence (P01116 1-169 isoform P01116-2 G12C): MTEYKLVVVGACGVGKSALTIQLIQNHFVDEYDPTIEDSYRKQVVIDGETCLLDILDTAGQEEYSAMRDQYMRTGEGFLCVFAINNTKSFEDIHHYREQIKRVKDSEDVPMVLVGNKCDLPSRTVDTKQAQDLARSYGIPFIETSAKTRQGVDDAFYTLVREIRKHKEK
- TEST_PROTOCOL: KRas binding assay, TR-FRET displacement of Cy5 labelled tracer
- SETUP_CONDITIONS: 60-minute incubation at room temperature, 1% DMSO, pH 7.5
Mark Satisfied for IC50 under 10 nM, Not satisfied if at or over.

Is the reported IC50 for CC(=O)N(C)C(=O)[C@@H]1C[C@H]1CNc1nc(OC[C@@]23CCCN2C[C@H](F)C3)nc2c(F)c(-c3ccc(F)c4sc(N)c(C#N)c34)c(Cl)cc12 strictly below 10 nM?
Not satisfied

Is 10 nM strictly greater than the molecule's reported IC50? molecule: COC(=O)CCCN(C)c1nc(OC[C@@]23CCCN2C[C@H](F)C3)nc2c(F)c(-c3ccc(F)c4sc(N)c(C#N)c34)c(Cl)cc12
Satisfied

Does the reported IC50 of the following molecule sit strictly below 10 nM? Cc1ccn(C(=O)C2CCCCN(c3nc(OC[C@@]45CCCN4C[C@H](F)C5)nc4c(F)c(-c5ccc(F)c6sc(N)c(C#N)c56)c(Cl)cc34)C2)n1 (stereo partly drawn)
Not satisfied

IC50 under 10 nM? Item: CCc1c(F)ccc2cc(O)cc(-c3ncc4c(N5CCC(C(=O)n6ccc(N(C)C)n6)CC5)nc(OC[C@@]56CCCN5C[C@H](F)C6)nc4c3F)c12
Not satisfied

Is the reported IC50 for CCc1c(F)ccc2cc(O)cc(-c3ncc4c(N(C)CCNC(=O)n5nccn5)nc(OC[C@@]56CCCN5C[C@H](F)C6)nc4c3F)c12 strictly below 10 nM?
Not satisfied

Does the reported IC50 of the following molecule sit strictly below 10 nM? COC(=O)[C@H]1CCN(c2nc(OCC34CCCN3CCC4)nc3c(F)c(-c4cccc5cccc(F)c45)ncc23)C[C@H]1O
Not satisfied

Quick check: does COc1ccccc1OC(=O)C1CCN(c2nc(OC[C@@]34CCCN3C[C@H](F)C4)nc3c(F)c(-c4ccc(F)c5sc(N)c(C#N)c45)c(Cl)cc23)CC1 have IC50 under 10 nM?
Satisfied

Find out if reported IC50 for O=C(Nc1ccccn1)C1CCN(c2nc(OCC34CCCN3CCC4)nc3c(F)c(-c4cccc5cccc(F)c45)ncc23)CC1 is less than 10 nM
Not satisfied

In the record for N#Cc1c(N)sc2c(F)ccc(-c3c(Cl)cc4c(N5CCN(S(=O)(=O)n6ccnn6)CC5)nc(OC[C@@]56CCCN5C[C@H](F)C6)nc4c3F)c12 , is IC50 less than 10 nM?
Not satisfied

Please indicate whether the reported IC50 of CCc1c(F)ccc2cc(O)cc(-c3ncc4c(N5CCC(C(=O)N6CCCCC6=O)CC5)nc(OC[C@@]56CCCN5C[C@H](F)C6)nc4c3F)c12 is strictly below 10 nM.
Not satisfied

# check: IC50 < 10 nM for CCc1c(F)ccc2cc(O)cc(-c3ncc4c(N5CCCCC(C(=O)n6ccc(C)n6)C5)nc(OC[C@@]56CCCN5C[C@H](F)C6)nc4c3F)c12 (stereo partly drawn)
Satisfied

----------
- TARGET_DESC: KRas-mediated phosphorylation of ERK in A549 cells (Homo sapiens, UniProt P01116, G12S)
- Construct: pERK HTRF read-out
- Sequence (P01116 1-188 isoform P01116-2 G12S): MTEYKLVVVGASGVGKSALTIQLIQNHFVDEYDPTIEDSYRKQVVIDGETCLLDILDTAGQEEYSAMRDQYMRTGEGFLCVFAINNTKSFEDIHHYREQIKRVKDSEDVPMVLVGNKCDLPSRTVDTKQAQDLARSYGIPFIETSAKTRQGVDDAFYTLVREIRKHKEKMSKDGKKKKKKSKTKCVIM
- TEST_PROTOCOL: Inhibition of KRas-mediated phosphorylation of ERK (HTRF), A549 cells
- Type: cell-based
- SETUP_CONDITIONS: HTRF pERK, 3 h incubation
Please assign f whenever IC50 is at or above 70 nM, and t whenever it is below.

Threshold test, IC50 < 70 nM: Cc1ccn(C(=O)C2CCCN(c3nc(OC[C@@]45CCCN4C[C@H](F)C5)nc4c(F)c(-c5ccc(F)c6sc(N)c(C#N)c56)c(C(F)(F)F)cc34)CC2)n1 (some centres unmarked)
t

Is it true that IC50 reported for CN(CCCC(=O)Oc1c(F)cccc1F)c1nc(OC[C@@]23CCCN2C[C@H](F)C3)nc2c(F)c(-c3ccc(F)c4sc(N)c(C#N)c34)c(Cl)cc12 is less than 70 nM?
f

Say whether its IC50 is strictly beneath 70 nM. Entry: CCc1c(F)ccc2cc(O)cc(-c3ncc4c(N5CCC(C(=O)n6ccc(C)n6)C5)nc(OC[C@@]56CCCN5C[C@H](F)C6)nc4c3F)c12 (some centres unmarked)
t

Record N#Cc1c(N)sc2c(F)ccc(-c3c(Cl)cc4c(N5CCC(C(=O)n6cccn6)CC5)nc(OC[C@@]56CCCN5C[C@H](F)C6)nc4c3F)c12 : is its IC50 strictly below 70 nM?
t

In plain terms, does CCc1c(F)ccc2cc(O)cc(N3CCc4c(nc(OC[C@@]56CCCN5C[C@H](F)C6)nc4N4CCC(C(=O)n5ccc(C)n5)CC4)C3)c12 come in under 70 nM for IC50?
f

Lab note: confirm whether the reported IC50 for this compound is below 70 nM, equality not counting. compound: CCc1c(F)ccc2cc(O)cc(-c3ncc4c(N5CC6CCC(C5)C6C(=O)n5cccn5)nc(OC[C@@]56CCCN5C[C@H](F)C6)nc4c3F)c12 (some centres unmarked)
f

Take the compound Cc1ccn(C(=O)C2CCN(c3nc(OC[C@@]45CCCN4C[C@H](F)C5)nc4c(F)c(-c5ccc(F)c6sc(N)c(C#N)c56)c(Cl)cc34)CC2)n1 and say whether its IC50 is less than 70 nM.
t

Below 70 nM on IC50? Entry CN(CCNC(=O)n1cncn1)c1nc(OC[C@@]23CCCN2C[C@H](F)C3)nc2c(F)c(-c3ccc(F)c4sc(N)c(C#N)c34)c(Cl)cc12
f

Item CCc1c(F)ccc2cc(O)cc(-c3ncc4c(N5CCC(C=O)CC5)nc(OC[C@@]56CCCN5C[C@H](F)C6)nc4c3F)c12 : IC50 beneath 70 nM, strictly?
f

Determine whether this compound shows IC50 lower than 70 nM (ties excluded): CCc1c(F)ccc2cc(O)cc(-c3ncc4c(N5CCC(C)(C(=O)n6ccc(C)n6)C5)nc(OC[C@@]56CCCN5C[C@H](F)C6)nc4c3F)c12 (some centres unmarked)
f

Item CC(=O)N(C)C(=O)CCCN(C)c1nc(OC[C@@]23CCCN2C[C@H](F)C3)nc2c(F)c(-c3ccc(F)c4sc(N)c(C#N)c34)c(Cl)cc12 [Example 259] : IC50 beneath 70 nM, strictly?
t

Decide: IC50 of N#Cc1c(N)sc2c(F)ccc(-c3c(Cl)cc4c(N5CCC(C(=O)Oc6ccccc6F)CC5)nc(OC[C@@]56CCCN5C[C@H](F)C6)nc4c3F)c12 strictly below 70 nM?
f

Is IC50 of CCc1c(F)ccc2cc(O)cc(-c3ncc4c(NCCCC(=O)N(C)C(C)=O)nc(OC[C@@]56CCCN5C[C@H](F)C6)nc4c3F)c12 strictly below 70 nM?
t

Consider CCc1c(F)ccc2cc(O)cc(-c3ncc4c(N5CCC(C(=O)n6cc(OC)cn6)CC5)nc(OC[C@@]56CCCN5C[C@H](F)C6)nc4c3F)c12 . Does its IC50 lie strictly below 70 nM?
f

For CCc1c(F)ccc2cc(O)cc(-c3ncc4c(N5CCC(C)(C(=O)n6ccc(C)n6)CC5)nc(OC[C@@]56CCCN5C[C@H](F)C6)nc4c3F)c12 , is the recorded IC50 below the cut-off of 70 nM?
f

Threshold test, IC50 < 70 nM: CCc1c(F)ccc2cc(O)cc(N3CCc4c(nc(OC[C@@]56CCCN5C[C@H](F)C6)nc4N4CCCC(C(=O)n5cccn5)CC4)C3)c12 (some centres unmarked)
t

Consider the compound C#Cc1c(F)ccc2cc(O)cc(-c3ncc4c(N5CCC(C(=O)n6ccc(C)n6)CC5)nc(OC[C@@]56CCCN5C[C@H](F)C6)nc4c3F)c12 . Is its IC50 strictly less than 70 nM?
f

Identify whether the compound CC(=O)N(C)C(=O)[C@@H]1C[C@@H]2CN(c3nc(OC[C@@]45CCCN4C[C@H](F)C5)nc4c(F)c(-c5ccc(F)c6sc(N)c(C#N)c56)c(Cl)cc34)C[C@@H]2C1 records IC50 below 70 nM.
t

Threshold test, IC50 < 70 nM: CCc1c(F)ccc2cc(O)cc(-c3ncc4c(NCC56CC(C(=O)n7ccc(C)n7)(C5)C6)nc(OC[C@@]56CCCN5C[C@H](F)C6)nc4c3F)c12
f

Report whether reported IC50 is lower than 70 nM (strictly) for CCc1c(F)ccc2cc(O)cc(-c3ncc4c(NCCCC(=O)n5ccc(C)n5)nc(OC[C@@]56CCCN5C[C@H](F)C6)nc4c3F)c12
t

Could you please tell me whether IC50 recorded for N#Cc1c(N)sc2c(F)ccc(-c3c(Cl)cc4c(N5CCC[C@H](C(=O)n6ccc(C7CC7)n6)CC5)nc(OC[C@@]56CCCN5C[C@H](F)C6)nc4c3F)c12 is less than 70 nM?
t

Hello, is IC50 of the following compound strictly smaller than 70 nM? CCc1c(F)ccc2cc(O)cc(-c3ncc4c(N5CCC(C(=O)Nc6ccccn6)CC5)nc(OC[C@@]56CCCN5C[C@H](F)C6)nc4c3F)c12
f

Bench note: check whether CCc1c(F)ccc2cc(O)cc(N3CCc4c(nc(OC[C@@]56CCCN5C[C@H](F)C6)nc4NCCCC(=O)n4ccc(C)n4)C3)c12 shows IC50 below 70 nM
f
